- MEASURED_TARGET: DR1 (DRA1*0101 DRB1*0101) (Homo sapiens, UniProt P01903+P01911, A100R/D57E/F55L/F60I/F76Y/I96L/L162R/M171V/P40L/Q125E/R42F/V115G/Y59C)
- ASSAY_REMARKS: Competitive binding to MHC-II protein DR1
- RUN_PARAMETERS: Protein binding IC50 (nM) 0101, 0101
Numbered stars: 1 amine (or outer) side, 2 acyl side, 3 side chain; on linkers, the order of the positions; unused ones are H or OH. Square brackets hold non-standard residues; d marks the D form. Peptide text beside a SMILES is read from it. * marks the point of attachment. Gly(1-amidinopiperidin-4-yl) = N=C(N)N1CCC([C@H](N)C(=O)O)CC1; X1 = CC(C)c1oc([C@H](CO)N[*:1])nc1C(=O)[*:2]; Pro(3R-Ph) = O=C(O)[C@H]1NCC[C@@H]1c1ccccc1; Tic = O=C(O)[C@@H]1Cc2ccccc2CN1; Cha = N[C@@H](CC1CCCCC1)C(=O)O; NHPhenethyl = c1ccc(CCN*)cc1; Nle = CCCC[C@H](N)C(=O)O
REPORTED_ENDPOINT: IC50 (nM)

[
  {
    "COMPOUND": "CCCC[C@H](NC(=O)[C@@H]1Cc2ccccc2CN1C(=O)[C@@H](NC(=O)[C@H](CC1CCCCC1)NC(C)=O)C1CCN(C(=N)N)CC1)C(=O)NCCc1ccccc1 [Compound P69, Ac-Cha-Gpg-Tic-Nle-N(H)CH2CH2Ph] (Ac-[Cha][Gly(1-amidinopiperidin-4-yl)][Tic][Nle]-NHPhenethyl)",
    "REPORTED_ENDPOINT": "IC50",
    "ENDPOINT_RESULT": 690
  },
  {
    "COMPOUND": "CCCC[C@H](NC(=O)[C@@H]1Cc2ccccc2CN1C(=O)[C@H](CCCNC(=N)N)NC(=O)[C@H](CC1CCCCC1)NC(C)=O)C(=O)N1CC[C@H](c2ccccc2)[C@H]1C(=O)N[C@@H](CO)c1nc(C(=O)N(C)C)c(C(C)C)o1 [Compound P51] (Ac-[Cha]R[Tic][Nle][Pro(3R-Ph)][X1]-NMe2)",
    "REPORTED_ENDPOINT": "IC50",
    "ENDPOINT_RESULT": 400
  }
]
